Taken from ChEMBL document CHEMBL5543084.

Assay: Cytotoxicity against mouse fibroblast NCTC clone 929 cells assessed as viable cells at […] microg/ml incubated for 24 hrs by CCK-8 assay
Type: toxicity, cell-based
Conditions: NCTC clone 929 (L929) fibroblast cells, dose 1.56 µg/ml, read-out: Activity
valueKind: viability at 24 h, 1.56 microg/ml (%)

1. C=C(C)[C@@H]1CCC(C)=C[C@H]1c1c(OCCCNC(=N)N)cc(CCCCC)cc1OCCCNC(=N)N : 94

* * *

The molecules listed here are annotated with their HC50 at 1 h.
Test: Hemolytic activity against rabbit blood cells incubated for 1 hr relative to control
Type: toxicity, cell-based, Oryctolagus cuniculus, Erythrocyte
Settings: rabbit blood cells (erythrocytes)
valueKind: HC50 at 1 h

1. C=C(C)[C@@H]1CCC(C)=C[C@H]1c1c(OCCCCN2CCCC2)cc(CCCCC)cc1OCCCCN1CCCC1 : 174 µg/mL
2. C=C(C)[C@@H]1CCC(C)=C[C@H]1c1c(OCCCCN(CCO)CCO)cc(CCCCC)cc1OCCCCN(CCO)CCO : > 200 µg/mL
3. C=C(C)[C@@H]1CCC(C)=C[C@H]1c1c(OCCCBr)cc(CCCCC)cc1OCCCBr : > 200 µg/mL
4. C=C(C)[C@@H]1CCC(C)=C[C@H]1c1c(OCCCCCCCCCCBr)cc(CCCCC)cc1OCCCCCCCCCCBr : > 200 µg/mL
5. C=C(C)[C@@H]1CCC(C)=C[C@H]1c1c(OCC(=O)OCC)cc(CCCCC)cc1OCC(=O)OCC : > 200 µg/mL
6. C=C(C)[C@@H]1CCC(C)=C[C@H]1c1c(OCCCCCCCCCCN)cc(CCCCC)cc1OCCCCCCCCCCN : > 200 µg/mL
7. C=C(C)[C@@H]1CCC(C)=C[C@H]1c1c(OCCCCN)cc(CCCCC)cc1OCCCCN : 141 µg/mL
8. CC1(C)S[C@@H]2[C@H](NC(=O)[C@H](N)c3ccc(O)cc3)C(=O)N2[C@H]1C(=O)O : > 200 µg/mL
9. C=C(C)[C@@H]1CCC(C)=C[C@H]1c1c(OCC(=O)O)cc(CCCCC)cc1OCC(=O)O : > 200 µg/mL
10. C=C(C)[C@@H]1CCC(C)=C[C@H]1c1c(OCCCCN(CC)CC)cc(CCCCC)cc1OCCCCN(CC)CC : > 200 µg/mL
11. C=C(C)[C@@H]1CCC(C)=C[C@H]1c1c(OCC(=O)N[C@@H](CCCCN)C(=O)OC)cc(CCCCC)cc1OCC(=O)N[C@@H](CCCCN)C(=O)OC : 116 µg/mL
12. C=C(C)[C@@H]1CCC(C)=C[C@H]1c1c(OCCCCN(C)CCCN(C)CCCNC)cc(CCCCC)cc1OCCCCN(C)CCCN(C)CCCNC : > 200 µg/mL
13. C=C(C)[C@@H]1CCC(C)=C[C@H]1c1c(OCCCCN(C)CCCNC)cc(CCCCC)cc1OCCCCN(C)CCCNC : > 200 µg/mL
14. C=C(C)[C@@H]1CCC(C)=C[C@H]1c1c(OCCCCCCCCCCNC(=N)N)cc(CCCCC)cc1OCCCCCCCCCCNC(=N)N : > 200 µg/mL
15. C=C(C)[C@@H]1CCC(C)=C[C@H]1c1c(OCC(=O)N[C@@H](CCCNC(=N)N)C(=O)N[C@@H](CCCNC(=N)N)C(=O)OC)cc(CCCCC)cc1OCC(=O)N[C@@H](CCCNC(=N)N)C(=O)N[C@@H](CCCNC(=N)N)C(=O)OC : > 200 µg/mL

* * *

Experiment: Cytotoxicity against mouse fibroblast NCTC clone 929 cells assessed as viable cells at 6.25 microg/ml incubated for 24 hrs by CCK-8 assay
Assay type: toxicity, cell-based
Settings: NCTC clone 929 (L929) fibroblast cells, at 6.25 µg/mL, read-out: Activity
valueKind: viability at 24 h, 6.25 microg/ml (%)

1. C=C(C)[C@@H]1CCC(C)=C[C@H]1c1c(OCCCNC(=N)N)cc(CCCCC)cc1OCCCNC(=N)N : 86.2

* * *

Tested on: Klebsiella pneumoniae
Assay: Antibacterial activity against Klebsiella pneumoniae ATCC 14581 assessed as inhibition of bacterial growth incubated for 24 hrs by broth dilution method
Assay type: functional
valueKind: log10 MIC (log10 of the value in µg/mL)

1) C=C(C)[C@@H]1CCC(C)=C[C@H]1c1c(OCCCCCN)cc(CCCCC)cc1OCCCCCN : 0.80
2) C=C(C)[C@@H]1CCC(C)=C[C@H]1c1c(OCCCCN(CCO)CCO)cc(CCCCC)cc1OCCCCN(CCO)CCO : 1.70
3) C=C(C)[C@@H]1CCC(C)=C[C@H]1c1c(OCCCCCCN)cc(CCCCC)cc1OCCCCCCN : -0.11
4) C=C(C)[C@@H]1CCC(C)=C[C@H]1c1c(OCCCCN2CCCC2)cc(CCCCC)cc1OCCCCN1CCCC1 : 1.40
5) C=C(C)[C@@H]1CCC(C)=C[C@H]1c1c(OCC(=O)N[C@@H](CCCNC(=N)N)C(=O)OC)cc(CCCCC)cc1OCC(=O)N[C@@H](CCCNC(=N)N)C(=O)OC : 1.40
6) C=C(C)[C@@H]1CCC(C)=C[C@H]1c1c(OCCCCN(C)C)cc(CCCCC)cc1OCCCCN(C)C : 0.80
7) C=C(C)[C@@H]1CCC(C)=C[C@H]1c1c(OCCCCNCCC)cc(CCCCC)cc1OCCCCNCCC : 1.40
8) C=C(C)[C@@H]1CCC(C)=C[C@H]1c1c(OCCCCNC(=N)N)cc(CCCCC)cc1OCCCCNC(=N)N : -0.11
9) C=C(C)[C@@H]1CCC(C)=C[C@H]1c1c(OCCCN)cc(CCCCC)cc1OCCCN : 1.10

* * *

Tested on: Staphylococcus aureus
Assay: Antibacterial activity against methicillin-resistant Staphylococcus aureus NCTC 10442 assessed as inhibition of bacterial growth incubated for 24 hrs by broth dilution method
Format: functional
Below is a list of entries, each paired with its recorded MIC value.
valueKind: MIC (µg/mL)

1. C=C(C)[C@@H]1CCC(C)=C[C@H]1c1c(OCC(=O)N[C@@H](CCCNC(=N)N)C(=O)OC)cc(CCCCC)cc1OCC(=O)N[C@@H](CCCNC(=N)N)C(=O)OC : 0.78
2. C=C(C)[C@@H]1CCC(C)=C[C@H]1c1c(OCCCCN(C)C)cc(CCCCC)cc1OCCCCN(C)C : 6.25
3. C=C(C)[C@@H]1CCC(C)=C[C@H]1c1c(OCCCCN(CCO)CCO)cc(CCCCC)cc1OCCCCN(CCO)CCO : 25
4. C=C(C)[C@@H]1CCC(C)=C[C@H]1c1c(OCCCCNC(=N)N)cc(CCCCC)cc1OCCCCNC(=N)N : 0.78

* * *

Assay: Cytotoxicity against human HepG2 cells assessed as viable cells at 6.25 microg/ml incubated for 24 hrs by CCK-8 assay
Assay type: toxicity, cell-based
Conditions: at 6.25 µg/mL, read-out: Activity
valueKind: viability at 24 h, 6.25 microg/ml

1. C=C(C)[C@@H]1CCC(C)=C[C@H]1c1c(OCCCNC(=N)N)cc(CCCCC)cc1OCCCNC(=N)N : 91.3%

* * *

Experiment: Hemolytic activity against rabbit blood cells incubated for 1 hr relative to control
Type: toxicity, cell-based, Oryctolagus cuniculus, Erythrocyte
Settings: rabbit blood cells (erythrocytes)
valueKind: HC50 at 1 h (µg/mL)

1. C=C(C)[C@@H]1CCC(C)=C[C@H]1c1c(OCCCCNC(=N)N)cc(CCCCC)cc1OCCCCNC(=N)N : 98.4
2. C=C(C)[C@@H]1CCC(C)=C[C@H]1c1c(OCCCCCN)cc(CCCCC)cc1OCCCCCN : 65.9
3. C=C(C)[C@@H]1CCC(C)=C[C@H]1c1c(OCCCCCNC(=N)N)cc(CCCCC)cc1OCCCCCNC(=N)N : 60.5
4. C=C(C)[C@@H]1CCC(C)=C[C@H]1c1c(OCCCCCCN)cc(CCCCC)cc1OCCCCCCN : 59.7
5. C=C(C)[C@@H]1CCC(C)=C[C@H]1c1c(OCCCCN(C)C)cc(CCCCC)cc1OCCCCN(C)C : 132
6. C=C(C)[C@@H]1CCC(C)=C[C@H]1c1c(OCCCCNCCC)cc(CCCCC)cc1OCCCCNCCC : 79.3
7. C=C(C)[C@@H]1CCC(C)=C[C@H]1c1c(OCCCCCCNC(=N)N)cc(CCCCC)cc1OCCCCCCNC(=N)N : 72.6
8. C=C(C)[C@@H]1CCC(C)=C[C@H]1c1c(OCCCCNC)cc(CCCCC)cc1OCCCCNC : 107

* * *

Experiment: Cytotoxicity against mouse fibroblast NCTC clone 929 cells assessed as viable cells at 3.125 microg/ml incubated for 24 hrs by CCK-8 assay
Type: toxicity, cell-based
Conditions: NCTC clone 929 (L929) fibroblast cells, at 3.125 µg/mL, read-out: Activity
valueKind: viability at 24 h, 3.125 microg/ml

1) C=C(C)[C@@H]1CCC(C)=C[C@H]1c1c(OCCCNC(=N)N)cc(CCCCC)cc1OCCCNC(=N)N : 92.3%
